# Measured On: Serotonin 3 (5-HT3) receptor
# Test Method Notes: Binding affinity against 5-hydroxytryptamine 3 receptor was measured using [3H]granisetron as radioligand
# Assay type: protein-complex assay
Reported -Log IC50 values follow for various compounds
Quantity Kind: -Log IC50

[[record]]
test_smiles = "c1cc2c(N3CCNCC3)nc3ccsc3n2c1"
measured_on = "Serotonin 3 (5-HT3) receptor"
measurement = 7.92

[[record]]
test_smiles = "CCOC(=O)N1CCN(c2nc3cccnc3n3cccc23)CC1"
measured_on = "Serotonin 3 (5-HT3) receptor"
measurement = 4.55

[[record]]
test_smiles = "c1ccc(CN2CCN(c3nc4cccnc4n4cccc34)CC2)cc1"
measured_on = "Serotonin 3 (5-HT3) receptor"
measurement = 12.09

[[record]]
test_smiles = "c1ccc(CN2CCN(c3nc4ccsc4n4cccc34)CC2)cc1"
measured_on = "Serotonin 3 (5-HT3) receptor"
measurement = 8.85

[[record]]
test_smiles = "Fc1ccc(CN2CCN(c3nc4cc(Cl)ccc4n4cccc34)CC2)cc1"
measured_on = "Serotonin 3 (5-HT3) receptor"
measurement = 7.71

[[record]]
test_smiles = "Clc1ccc2c(c1)nc(N1CCN(Cc3ccc4c(c3)OCO4)CC1)c1cccn12"
measured_on = "Serotonin 3 (5-HT3) receptor"
measurement = 10.09

